Target: recombinant human 11β-HSD type 1 enzyme (Homo sapiens)
Sequence (P28845 whole entry): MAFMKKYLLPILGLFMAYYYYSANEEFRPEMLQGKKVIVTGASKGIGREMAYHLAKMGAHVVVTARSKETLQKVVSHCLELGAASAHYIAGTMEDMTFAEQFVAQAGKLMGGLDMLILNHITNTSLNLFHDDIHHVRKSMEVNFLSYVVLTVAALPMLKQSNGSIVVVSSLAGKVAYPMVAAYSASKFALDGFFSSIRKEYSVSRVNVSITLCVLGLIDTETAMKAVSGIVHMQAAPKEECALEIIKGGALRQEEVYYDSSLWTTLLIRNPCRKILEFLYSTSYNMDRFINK
Assay: 11-β-HSD Type 1 Enzyme Assay (NADPH fluorescence)
Settings: three hour incubation at room temperature, read-out: Human 11-βHSD1 IC50
quantity: IC50 (nM)
Value expressed in nM; do not type the unit.

Prompt: // IC50 lookup, key: O=C(c1ccc(-c2cc(Cl)c(C[C@@H]3CCN(N4CCCCC4)C3=O)c(Cl)c2)cc1)N1CCC(O)CC1
Response: 357

Data provenance is patent US8148534B2.
